molecular target: unrelated control antibody; assay: phage ELISA, coated control mAb, 10^8 phagemid per well
Positions of bridges follow the written chain, without caps; N, C: chain ends. No end group written: not given here.
Reported ELISA (absorbance units) (absorbance units) by item:
Please reply with the value in numeric form only.

Known results for binders:
- binder: "CSFRYLWDQDRCS (disulfide 1-12 (inferred); also: displayed on phage (phagemid)) [phagemid CS1-6p (phage-displayed disulfide cyclized 13 mer peptide)]"
  result.value: 0.173
- binder: "CSFRYQWDMFRCS (disulfide 1-12 (inferred); also: displayed on phage (phagemid)) [phagemid CS1-11p (phage-displayed disulfide cyclized 13 mer peptide)]"
  result.value: 0.252

Consider the record given below.
Consider the binder CSGLYPWDMFRCS (disulfide 1-12 (inferred); also: displayed on phage (phagemid)) [phagemid CS1-9p (phage-displayed disulfide cyclized 13 mer peptide)] and give its recorded ELISA (absorbance units) (absorbance units).
0.209
